Hello, the source for this data is ChEMBL document CHEMBL5154874, in case you need it.

# protocol-details: Cmax in mouse at 60 mg/kg, po measured for 0.25 to 24 hrs
# Assay type: ADME, organism-based
# Set-up: time 0.25-24 hrs, dose 60 mg/kg, route po
# assay-context: in vivo
result-type: Cmax
Note: a bare number is incomplete; add the unit.

Ask: Look at this compound and give its reported Cmax. CCCCc1sc(C2CCN(CCCCc3cn(C)c4ccc(C#N)cc34)CC2)nc1-c1ccc(Oc2ccc(Cl)cc2)cc1
Reply: 4940 ng/mL

====

# protocol-details: AUC (0 to infinity) in mouse at 10 mg/kg, iv measured for 0.083 to 24 hrs
# Format: ADME, organism-based
# Set-up: dose 10 mg/kg, time 0.083-24 hrs, route iv
# assay-context: in vivo
result-type: AUC(0-inf) (ng·h/mL)
Response body: numeric value in ng·h/mL, unit text excluded.

Ask: AUC(0-inf) for CCCCc1sc(C2CCN(CCCCc3cn(C)c4ccc(C#N)cc34)CC2)nc1-c1ccc(Oc2ccc(Cl)cc2)cc1 ?
Reply: 23700
